Measured values drawn from ChEMBL document CHEMBL2029344 for this set.

assay: Stability in human liver microsomes after 30 mins by LC/MS analysis; type: ADME, Microsome; conditions: read-out: Stability
Readout type: remaining at 0.5 h (%)

Below, 3 compounds whose answers are already recorded.
Structure smiles	Unit abbrev	remaining at 0.5 h
Cc1nc(C2CCN(C(=O)[C@@H]3C[C@@](C)(N)C[C@H]3c3ccc(F)cc3F)CC2)n(-c2ccc(Cl)c(C)c2)n1	%	78
Cc1nc(C2CCN(C(=O)[C@@H]3C[C@](C)(N)C[C@H]3c3ccc(F)cc3F)CC2)n(-c2ccc(F)c(Cl)c2)n1	%	91
Cc1nc(C2CCN(C(=O)[C@@H]3C[C@@](C)(N)C[C@H]3c3ccc(F)cc3F)CC2)n(-c2cc(Cl)ccc2Cl)n1	%	79

[1] Cc1cc(C2CCN(C(=O)[C@@H]3C[C@@](C)(N)C[C@H]3c3ccc(F)cc3F)CC2)n(-c2cc(Cl)ccc2Cl)n1
[2] Cc1cc(C2CCN(C(=O)[C@@H]3C[C@@](C)(N)C[C@H]3c3ccc(F)cc3F)CC2)n(-c2ccc(F)c(Cl)c2)n1
[3] C[C@@]1(N)C[C@H](C(=O)N2CCC(c3ccnn3-c3ccc(F)c(Cl)c3)CC2)[C@@H](c2ccc(F)cc2F)C1
Which order do these items take when sorted by rising remaining at 0.5 h? List them. Ranked list of labels, please, in the requested order. 3, 1, 2

* * *

assay: Drug uptake in C57 mouse plasma at 30 mg/kg, po after 20 hrs by LC/MS analysis; assay type: ADME, organism-based; design: dose 30 mg/kg, route oral
Readout type: concentration at 20 h (nM)

Structure smiles	concentration at 20 h / nM
Cc1cc(C2CCN(C(=O)[C@@H]3C[C@@](C)(N)C[C@H]3c3ccc(F)cc3F)CC2)n(-c2ccc(F)c(Cl)c2)n1	2820
C[C@@]1(N)C[C@H](C(=O)N2CCC(c3ccnn3-c3ccc(F)c(Cl)c3)CC2)[C@@H](c2ccc(F)cc2F)C1	2130

* * *

molecular target: Mus musculus; assay: Ex-vivo inhibition of po dosed mouse PrCP by FRET analysis in presence of heat inactivated 100% plasma; type: functional, organism-based
Readout type: Ki (nM)

[A] Cc1nc(C2CCN(C(=O)[C@@H]3C[C@@](C)(N)C[C@H]3c3ccc(F)cc3F)CC2)n(-c2ccc(Cl)c(C)c2)n1
[B] Cc1nc(C2CCN(C(=O)[C@@H]3C[C@@](C)(N(C)C)C[C@H]3c3ccc(F)cc3F)CC2)n(-c2ccc(Cl)c(C)c2)n1
Returns the identifier with the smallest measured Ki among A and B . Identify your pick by its label. B
(B: 16.6 nM, A: 73.9 nM)

[1] Cc1cc(C2CCN(C(=O)[C@@H]3C[C@@](C)(N(C)C)C[C@H]3c3ccc(F)cc3F)CC2)n(-c2ccc(F)c(Cl)c2)n1
[2] Cc1nc(C2CCN(C(=O)[C@@H]3C[C@@](C)(N(C)C)C[C@H]3c3ccc(F)cc3F)CC2)n(-c2cc(Cl)ccc2Cl)n1
Endpoint returns whichever of 1 and 2 has the numerically higher Ki. Identify your pick by its label. 1

[A] Cc1nc(C2CCN(C(=O)[C@@H]3C[C@@](C)(N)C[C@H]3c3ccc(F)cc3F)CC2)n(-c2cc(Cl)ccc2Cl)n1
[B] Cc1cc(C2CCN(C(=O)[C@@H]3C[C@@](C)(N)C[C@H]3c3ccc(F)cc3F)CC2)n(-c2cc(Cl)ccc2Cl)n1
Endpoint returns whichever of A and B has the numerically higher Ki. Identify your pick by its label. A

[1] Cc1nc(C2CCN(C(=O)[C@@H]3C[C@@](C)(N(C)C)C[C@H]3c3ccc(F)cc3F)CC2)n(-c2ccc(F)c(Cl)c2)n1
[2] Cc1cc(C2CCN(C(=O)[C@@H]3C[C@@](C)(N)C[C@H]3c3ccc(F)cc3F)CC2)n(-c2ccc(F)c(Cl)c2)n1
[3] Cc1cc(C2CCN(C(=O)[C@@H]3C[C@@](C)(N(C)C)C[C@H]3c3ccc(F)cc3F)CC2)n(-c2cc(Cl)ccc2Cl)n1
Arrange by Ki, high to low. Ranked list of labels, please, in the requested order. 2, 3, 1

[P] C[C@@]1(N)C[C@H](C(=O)N2CCC(c3ccnn3-c3ccc(F)c(Cl)c3)CC2)[C@@H](c2ccc(F)cc2F)C1
[Q] Cc1cc(C2CCN(C(=O)[C@@H]3C[C@](C)(N)C[C@H]3c3ccc(F)cc3F)CC2)n(-c2ccc(F)c(Cl)c2)n1
Returns the identifier with the smallest measured Ki among P and Q . Identify your pick by its label. P
